- protocol-text: Blood concentration and PK in infected NSG mice after single oral dose
- Format: in vivo, mouse
- stated-conditions: female, NSG (NODscidIL2Rγnull), mouse, whole blood, po; 50 mg/kg p.o.; read-out: AUC0-24h
measurement-name: AUC(0 - t)
Enter the number, and then the unit.

Record C[C@@H](CNC(=O)[C@H](O)C(C)(C)CO)NC(=O)c1cc(C#N)ccc1F . Reported AUC(0 - t): 15100 ng·h/mL

====

- protocol-text: Human hepatocyte clearance (relay assay)
- stated-conditions: human, % Remaining, 10 µM, hepatocyte donor HC1010, 24 h, single replicates
measurement-name: remaining at 24 h, 10 µM (%)
Give just the number in %; leave the unit off.

Record CCOc1ccc2ccc(=O)oc2c1 . Reported remaining at 24 h, 10 µM: 2

====

- protocol-text: Human hepatocyte clearance (relay assay)
- stated-conditions: human, % Remaining, 10 µM, hepatocyte donor HC1010, 3 h, single replicates
measurement-name: remaining at 3 h, 10 µM (%)
Give just the number in %; leave the unit off.

Record CCOc1ccc2ccc(=O)oc2c1 . Reported remaining at 3 h, 10 µM: 46.7

====

- protocol-text: Human hepatocyte clearance (relay assay)
- stated-conditions: human, % Remaining, 10 µM, hepatocyte donor HC1010, 0 h, single replicates
measurement-name: remaining at 0 h, 10 µM (%)
Give just the number in %; leave the unit off.

Record CCOc1ccc2ccc(=O)oc2c1 . Reported remaining at 0 h, 10 µM: 100

====

- protocol-text: Blood concentration and PK in infected NSG mice after single oral dose
- Assay type: in vivo, mouse
- stated-conditions: female, NSG (NODscidIL2Rγnull), mouse, whole blood, oral, 50 mg/kg, 1 h post treatment, per mouse
measurement-name: concentration at 1 h (ng/mL)
Give just the number in ng/mL; leave the unit off.

Record C[C@@H](CNC(=O)[C@H](O)C(C)(C)CO)NC(=O)c1cc(C#N)ccc1F . Reported concentration at 1 h: 6360

====

- protocol-text: Human hepatocyte clearance (relay assay)
- stated-conditions: human, % Remaining, 10 µM, hepatocyte donor HC425, 6 h, single replicates
measurement-name: remaining at 6 h, 10 µM (%)
Give just the number in %; leave the unit off.

Record CCOc1ccc2ccc(=O)oc2c1 . Reported remaining at 6 h, 10 µM: 72.1

====

- protocol-text: Blood concentration and PK in infected NSG mice after single oral dose
- Assay type: in vivo, mouse
- stated-conditions: 50 mg/kg p.o.
measurement-name: AUC0-24h (ng·h/mL)
Give just the number in ng·h/mL; leave the unit off.

Record C[C@@H](CNC(=O)[C@H](O)C(C)(C)CO)NC(=O)c1cccc(C#N)c1 (stereo in doubt) . Reported AUC0-24h: 8650

Record C[C@@H](CNC(=O)[C@H](O)C(C)(C)CO)NC(=O)c1cc(F)c(F)cc1F . Reported AUC0-24h: 33700

Record C[C@@H](CNC(=O)[C@H](O)C(C)(C)CO)NC(=O)c1cccc(F)c1 (stereo in doubt) . Reported AUC0-24h: 11800

Record CC(C)(CO)[C@@H](O)C(=O)NCCNC(=O)c1cc(C#N)ccc1F . Reported AUC0-24h: 10800

Record CC(CNC(=O)C(O)C(C)(C)CO)NC(=O)CCc1ccccc1F (stereo in doubt) . Reported AUC0-24h: 6730

====

- protocol-text: Blood concentration and PK in infected NSG mice after single oral dose
- Assay type: in vivo, mouse
- stated-conditions: 50 mg/kg p.o.
Could you please report measured Tmax for the items listed next?
Give just the number in h; leave the unit off.

Record C[C@@H](CNC(=O)[C@H](O)C(C)(C)CO)NC(=O)c1cccc(F)c1 (stereo in doubt) . Reported Tmax: 1.00

Record C[C@@H](CNC(=O)[C@H](O)C(C)(C)CO)NC(=O)c1cc(F)c(F)cc1F . Reported Tmax: 1.50

Record CC(C)(CO)[C@@H](O)C(=O)NCCNC(=O)c1cc(C#N)ccc1F . Reported Tmax: 1.00

Record C[C@@H](CNC(=O)[C@H](O)C(C)(C)CO)NC(=O)c1cccc(C#N)c1 (stereo in doubt) . Reported Tmax: 1.00

Record CC(CNC(=O)C(O)C(C)(C)CO)NC(=O)CCc1ccccc1F (stereo in doubt) . Reported Tmax: 1.00
